test system: HA-tagged human β2-adrenergic receptor (β2AR) (Homo sapiens)
Sequence (P07550 whole entry): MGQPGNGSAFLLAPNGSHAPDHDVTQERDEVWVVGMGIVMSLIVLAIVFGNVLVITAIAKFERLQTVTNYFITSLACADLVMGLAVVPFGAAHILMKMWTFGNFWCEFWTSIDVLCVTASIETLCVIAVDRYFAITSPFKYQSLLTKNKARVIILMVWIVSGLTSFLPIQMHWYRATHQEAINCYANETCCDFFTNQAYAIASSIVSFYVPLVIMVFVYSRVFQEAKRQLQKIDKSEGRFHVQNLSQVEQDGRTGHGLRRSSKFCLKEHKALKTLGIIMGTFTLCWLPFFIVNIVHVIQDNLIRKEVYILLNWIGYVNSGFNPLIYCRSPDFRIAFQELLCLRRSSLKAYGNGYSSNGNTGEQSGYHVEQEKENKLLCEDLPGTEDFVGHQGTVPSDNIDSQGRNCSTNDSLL
test protocol: arrestin-GFP localization (Fgrains) assay in U20S-β2AR/ArrGFP cells, isoproterenol stimulated
experimental context: B2AR RT plate: room temperature, atmospheric CO2; 100 nM isoproterenol
property name: pEC50
# output: bare number, no unit

IN: Find the measured pEC50 of O=C1NC(=O)C(c2cn(CCCN3CCNCC3)c3ccccc23)=C1c1c[nH]c2ccccc12 [Bisindolylmaleimide VII] and report it.
OUT: 4.6

IN: Find the measured pEC50 of Cn1cc(C2=C(c3c4n(c5ccccc35)CCC(CN)C4)C(=O)NC2=O)c2ccccc21 (stereo not drawn) [RO-31-8425] and report it.
OUT: 4.6

IN: Find the measured pEC50 of Cl.NCCCn1cc(C2=C(c3c[nH]c4ccccc34)C(=O)NC2=O)c2ccccc21 [Bisindolylmaleimide III, Hydrochloride] and report it.
OUT: 4.5

IN: Find the measured pEC50 of NCCCn1cc(C2=C(c3c[nH]c4ccccc34)C(=O)NC2=O)c2ccccc21 [Bisindolylmaleimide III] and report it.
OUT: 4.7

IN: Find the measured pEC50 of CN1CCCC1CCn1cc(C2=C(c3c[nH]c4ccccc34)C(=O)NC2=O)c2ccccc21 (stereo not drawn) [Bisindolylmaleimide II] and report it.
OUT: 4.1

IN: Find the measured pEC50 of Cn1cc(C2=C(c3cn(CCCN)c4ccccc34)C(=O)NC2=O)c2ccccc21 [RO-31-7549] and report it.
OUT: 4.5

* * *

I'd be grateful if you could share measured pEC50 for these entries.
test system: human vasopressin V2 receptor (V2R) (Homo sapiens, UniProt P30518)
Sequence (P30518 whole entry): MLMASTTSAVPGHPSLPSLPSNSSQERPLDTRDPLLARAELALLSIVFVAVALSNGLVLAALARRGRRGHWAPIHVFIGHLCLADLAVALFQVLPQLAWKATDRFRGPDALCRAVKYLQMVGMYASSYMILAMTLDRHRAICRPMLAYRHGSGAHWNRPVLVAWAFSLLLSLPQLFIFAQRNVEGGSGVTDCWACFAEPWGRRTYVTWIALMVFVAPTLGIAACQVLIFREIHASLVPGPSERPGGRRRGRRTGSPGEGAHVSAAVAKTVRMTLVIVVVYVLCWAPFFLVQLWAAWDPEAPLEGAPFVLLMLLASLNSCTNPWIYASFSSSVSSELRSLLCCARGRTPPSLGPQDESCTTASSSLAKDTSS
test protocol: arrestin-GFP localization (Fgrains) assay in U20S-V2R/ArrGFP cells, arginine vasopressin stimulated
Format: cell-based
experimental context: V2R CO2 plate: 37° C., 5% CO2/95% O2; 100 nM arginine vasopressin
Protocol: The assay was carried out using two different “double stable” human osteosarcoma cell (U20S) lines. […] The other cell line (U20S-V2R/ArrGFP) stably expressed V2R and the same arrestin-GFP conjugate. […] Each assay was then terminated using 1% paraformaldehyde containing 1 μM DRAQ5 DNA probe to fix the cells. The cells were analyzed using a pre-production model (alpha unit) of the IN Cell Analyzer 3000 (Amersham Biosciences), which is a line scanning, confocal imaging system. […]
# output: bare number, no unit

IN: Find the measured pEC50 of Cn1cc(C2=C(c3cn(CCCN)c4ccccc34)C(=O)NC2=O)c2ccccc21 and report it.
OUT: 5.6

IN: Find the measured pEC50 of CN1CCCC1CCn1cc(C2=C(c3c[nH]c4ccccc34)C(=O)NC2=O)c2ccccc21 (stereo not drawn) [Bisindolylmaleimide II] and report it.
OUT: 4.5

IN: Find the measured pEC50 of Cl.NCCCn1cc(C2=C(c3c[nH]c4ccccc34)C(=O)NC2=O)c2ccccc21 [Bisindolylmaleimide III, Hydrochloride] and report it.
OUT: 4.6

* * *

test system: UniProt P07550
test protocol: arrestin-GFP localization (Fgrains) assay in U20S-β2AR/ArrGFP cells, isoproterenol stimulated
experimental context: B2AR CO2 plate: 37° C., 5% CO2/95% O2; 100 nM isoproterenol
Decision: Max Rsp (change between fitted maximum and fitted minimum Fgrains) compared against 200; not below it gives yes, below it gives no.

IN: Form field: Max Rsp (change between fitted maximum and fitted minimum Fgrains) at least 200? Entry: CN1CCCC1CCn1cc(C2=C(c3c[nH]c4ccccc34)C(=O)NC2=O)c2ccccc21 (stereo not drawn) [Bisindolylmaleimide II]
OUT: yes

IN: Form field: Max Rsp (change between fitted maximum and fitted minimum Fgrains) at least 200? Entry: Cn1cc(C2=C(c3cn(CCCN)c4ccccc34)C(=O)NC2=O)c2ccccc21
OUT: yes

IN: Form field: Max Rsp (change between fitted maximum and fitted minimum Fgrains) at least 200? Entry: Cl.NCCCn1cc(C2=C(c3c[nH]c4ccccc34)C(=O)NC2=O)c2ccccc21 [Bisindolylmaleimide III, Hydrochloride]
OUT: yes

IN: Form field: Max Rsp (change between fitted maximum and fitted minimum Fgrains) at least 200? Entry: CCC(=O)n1nc2c(c1C(C)(C)C)C(=O)c1ccccc1-2
OUT: no

IN: Form field: Max Rsp (change between fitted maximum and fitted minimum Fgrains) at least 200? Entry: C[n+]1cc2c3c(ccc2c2ccc4cc5c(cc4c21)OCO5)OCO3 [Sanguinarine Chloride (LOPAC), Sanguinarine Chloride]
OUT: yes

* * *

I'd be grateful if you could share measured slope of concentration-response curve for these entries.
test system: human vasopressin V2 receptor (V2R) (Homo sapiens, UniProt P30518)
test protocol: arrestin-GFP localization (Fgrains) assay in U20S-V2R/ArrGFP cells, arginine vasopressin stimulated
Format: cell-based
experimental context: V2R CO2 plate: 37° C., 5% CO2/95% O2; 100 nM arginine vasopressin

IN: Write down measured slope of concentration-response curve (human vasopressin V2 receptor (V2R) (Homo sapiens, UniProt P30518)) for this molecule. Cn1cc(C2=C(c3cn(CCCN)c4ccccc34)C(=O)NC2=O)c2ccccc21
OUT: 1.0

IN: Write down measured slope of concentration-response curve (human vasopressin V2 receptor (V2R) (Homo sapiens, UniProt P30518)) for this molecule. CN1CCCC1CCn1cc(C2=C(c3c[nH]c4ccccc34)C(=O)NC2=O)c2ccccc21 (stereo not shown) [Bisindolylmaleimide II]
OUT: 1.2

IN: Write down measured slope of concentration-response curve (human vasopressin V2 receptor (V2R) (Homo sapiens, UniProt P30518)) for this molecule. C[n+]1cc2c3c(ccc2c2ccc4cc5c(cc4c21)OCO5)OCO3 [Sanguinarine Chloride (S5890), Sanguinarine Chloride]
OUT: 2.1

IN: Write down measured slope of concentration-response curve (human vasopressin V2 receptor (V2R) (Homo sapiens, UniProt P30518)) for this molecule. C[n+]1cc2c3c(ccc2c2ccc4cc5c(cc4c21)OCO5)OCO3 [Sanguinarine Chloride (LOPAC), Sanguinarine Chloride]
OUT: 2.6
